- TEST_TARGET: FimH (Escherichia coli, UniProt Q1R2J4)
- CONDITION_PARAMETERS: read-out: 50% HA titer; Example 6 numbering
QUANTITY: EC50 (µM)

COMPOUND	TEST_TARGET	MEASUREMENT
OCc1ccccc1-c1ccc(OC2OC(CO)C(O)C(O)C2O)cc1 (stereo not shown) [Compound 14g]	FimH (Escherichia coli, UniProt Q1R2J4)	16

====

HAI Titer EC>50 by entry:
- TEST_TARGET: FimH (Escherichia coli, UniProt Q1R2J4);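 further: hemagglutination inhibition of guinea pig erythrocytes agglutinated by type 1 piliated uropathogenic E. coli via FimH mannose binding, quantified through serial dilutions of compound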
- CONDITION_PARAMETERS: Table 21; ZFH/JWJ codes

MOLECULE	HAI Titer EC>50
COC(=O)c1sc(-c2ccc(OC3OC(CO)C(O)C(O)C3O)cc2)cc1NC(N)=O (stereo not shown) [Compound 4ZFH52]	0.016 µM
COC(=O)c1cccc(-c2ccc(OC3O[C@@H](CO)[C@@H](O)[C@H](O)[C@H]3O)c(C(F)(F)F)c2)c1 (stereo partly shown) [Compound 4ZFH222]	0.032 µM
CC(=O)Nc1ccc(-c2ccc(OC3OC(CO)C(O)C(O)C3O)cc2)cc1 (stereo not shown) [Compound 4ZFH277]	1.000 µM
O=c1[nH]ccc2ccc(-c3ccc(OC4OC(CO)C(O)C(O)C4O)cc3)cc12 (stereo not shown) [Compound 5ZFH63]	0.100 µM
CNC(=O)c1cccc(-c2ccc(OC3O[C@@H](CO)[C@@H](O)[C@H](O)[C@H]3O)c(Cl)c2)c1 (stereo partly shown) [Compound 4ZFH170]	0.125 µM
COC(=O)c1cccc(-c2ccc(C(=O)NCC3O[C@@H](CO)[C@@H](O)[C@H](O)[C@H]3O)cc2)c1 (stereo partly shown) [Compound 4ZFH131]	16.000 µM
COC(=O)c1cccc(-c2ccc(OC3O[C@@H](CO)[C@@H](O)[C@H](O)[C@H]3O)c(F)c2)c1 (stereo partly shown) [Compound 4ZFH220]	0.750 µM

====

- Type: in vitro ADME
- CONDITION_PARAMETERS: 64800 sec, […], pH 7.4
- Method: Materials. The assay was carried out using Multiscreen PVDF 96-well plates (Millipore, Billerica, Mass.) using the company's Transporter Receiver Plate. […] Methods. […] The concentration in the receiver plate as well as an equilibrium plate, that represents a theoretical, partition-free sample, was determined by HPLC-tandem mass spectrometry. […] Calculations. The login of the effective permeability (LogPe) was calculated using the following equation […]

COMPOUND	PAMPA (LogPe)
COC(=O)c1cccc(-c2ccc(OC3OC(CO)C(O)C(O)C3O)cc2)c1 (stereo not drawn)	−4.250
COC(=O)c1cccc(-c2ccc(O[C@H]3O[C@H](CO)[C@@H](O)[C@H](O)[C@@H]3O)c(Cl)c2)c1	−4.29
OCC1OC(Oc2ccc(-c3ccc(O)cc3)cc2)C(O)C(O)C1O (stereo not drawn)	−8.890
CNC(=O)c1cccc(-c2ccc(OC3O[C@@H](CO)[C@@H](O)[C@H](O)[C@H]3O)c(C)c2)c1 (stereo partly drawn)	−3.89
COC(=O)c1cccc(-c2ccc(O[C@H]3O[C@H](CO)[C@@H](O)[C@H](O)[C@@H]3O)cc2)c1 [Compound 1, phenyl mannoside, reference compound]	−5.42
COC(=O)c1cccc(-c2ccc(O[C@H]3O[C@H](CO)[C@@H](O)[C@H](O)[C@@H]3O)c(C(F)(F)F)c2)c1	−3.91
NC(=O)Nc1ccc(-c2ccc(OC3O[C@@H](CO)[C@@H](O)[C@H](O)[C@H]3O)cc2)cc1 (stereo partly drawn)	−4.35
COC(=O)c1cccc(-c2ccc(OC3O[C@@H](CO)[C@@H](O)[C@H](O)[C@H]3O)c(C(F)(F)F)c2)c1 (stereo partly drawn)	−3.91
CNC(=O)c1cc(C(=O)NC)cc(-c2ccc(OC3O[C@@H](CO)[C@@H](O)[C@H](O)[C@H]3O)c(C(F)(F)F)c2)c1 (stereo partly drawn)	−6.27

Hey, just so you know, these numbers are from patent US8937167B2.
